test.system: Histone deacetylase 1 (Homo sapiens, UniProt Q13547)
Sequence (Q13547 whole entry): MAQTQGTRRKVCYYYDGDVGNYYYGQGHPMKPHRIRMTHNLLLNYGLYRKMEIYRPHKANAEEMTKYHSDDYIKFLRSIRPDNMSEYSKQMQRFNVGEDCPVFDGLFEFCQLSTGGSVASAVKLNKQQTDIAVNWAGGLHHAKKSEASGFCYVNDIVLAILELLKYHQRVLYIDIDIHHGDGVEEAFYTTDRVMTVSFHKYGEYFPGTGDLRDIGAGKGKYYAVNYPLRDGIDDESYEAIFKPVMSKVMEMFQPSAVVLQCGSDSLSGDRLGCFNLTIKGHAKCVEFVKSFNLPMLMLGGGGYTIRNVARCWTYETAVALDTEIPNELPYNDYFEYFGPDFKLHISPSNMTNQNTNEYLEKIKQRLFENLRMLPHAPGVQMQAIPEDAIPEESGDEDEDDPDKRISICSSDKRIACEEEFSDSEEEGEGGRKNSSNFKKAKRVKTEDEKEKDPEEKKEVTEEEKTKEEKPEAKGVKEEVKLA
assay.method.text: Inhibition of recombinant HDAC1 (unknown origin) incubated for 15 mins before substrate addition and measured after 30 to 45 mins by HDAC-Glo substrate
test.readout: IC50 (µM)
Just the number please, in µM, no unit attached.

Inquiry: I have this compound here, CCCCCCCC(=O)SCC/C=C/[C@@H]1CC(=O)NCc2cccc(n2)-c2cccc(n2)C(=O)N[C@@H](C(C)C)C(=O)O1 , and I need its recorded IC50.
Reply text: 0.021

Inquiry: Similarly, CCCCCCCC(=O)SCC/C=C/[C@@H]1CC(=O)NCc2nc(cs2)C2=N[C@@](C)(CS2)C(=O)N[C@@H](C(C)C)C(=O)O1 ?
Reply text: 0.061

Hey, just so you know, these numbers are from ChEMBL document CHEMBL4680097.
